Tested on: COS Cell
Assay: COS Cell IC50 (Cell-Based Assay)
Conditions: COS, Table 5; read-out: Cos Cell IC50
List of pIC50 values.
Hey, just a heads up that pIC50 is the negative log base 10 of the concentration in molar.

Below, each entry is followed by its recorded pIC50 result.
| Compound | Assayed System | Property Label | Assay Value |
| --- | --- | --- | --- |
| O=C(CCN1CCCCC1)N1CCC(CC(=O)N2CCC([C@H]3c4ncc(Br)cc4CCc4cc(Cl)cc(Br)c43)CC2)CC1 | COS Cell | pIC50 | 7.37 |
| NNC(=O)C(=O)N1CCC(CC(=O)N2CCC([C@H]3c4ncc(Br)cc4CCc4cc(Cl)cc(Br)c43)CC2)CC1 | COS Cell | pIC50 | 7.55 |
| O=C(CC1CCN(C(=O)CN2CCCCC2)CC1)N1CCC([C@H]2c3ncc(Br)cc3CCc3cc(Cl)cc(Br)c32)CC1 | COS Cell | pIC50 | 8.00 |
| O=C(CC1CCN(C(=O)CC2COCCO2)CC1)N1CCC([C@H]2c3ncc(Br)cc3CCc3cc(Cl)cc(Br)c32)CC1 (some centres unmarked) | COS Cell | pIC50 | 8.00 |
| CC(C)(C)OC(=O)N1CC(O)CC1C(=O)N1CCC(CC(=O)N2CCC(C3c4ncc(Br)cc4CCc4cc(Cl)cc(Br)c43)CC2)CC1 (centres unmarked) | COS Cell | pIC50 | 7.00 |

Request: Dear colleague, I am looking for the recorded pIC50 of the following compound: "CN(C)C(=O)C(=O)N1CCC(CC(=O)N2CCC([C@H]3c4ncc(Br)cc4CCc4cc(Cl)cc(Br)c43)CC2)CC1"
Response: 8.00

Request: Dear colleague, I am looking for the recorded pIC50 of the following compound: O=C(O)CC(O)CC(=O)N1CCC(CC(=O)N2CCC([C@H]3c4ncc(Br)cc4CCc4cc(Cl)cc(Br)c43)CC2)CC1 (some centres unmarked)
Response: 7.40

Request: Dear colleague, I am looking for the recorded pIC50 of the following compound: "COC(=O)c1cccn1CC(=O)N1CCC(CC(=O)N2CCC([C@H]3c4ncc(Br)cc4CCc4cc(Cl)cc(Br)c43)CC2)CC1"
Response: 7.52

====

List of melting point values.

| Compound | melting point |
| --- | --- |
| CN(C)CCCC(=O)N1CCC(CC(=O)N2CCC(C3c4ncc(Br)cc4CCc4cc(Cl)cc(Br)c43)CC2)CC1 (single isomer, unassigned; (+)) | 69 to 71 °C |

Request: Dear colleague, I am looking for the recorded melting point of the following compound: "CCOC(=O)CC(=O)N1CCC(CC(=O)N2CCC([C@H]3c4ncc(Br)cc4CCc4cc(Cl)cc(Br)c43)CC2)CC1"
Response: 77.2 to 78.1 °C

====

System: COS Cell
Assay: COS Cell IC50 (Cell-Based Assay)
Conditions: COS, Table 5; read-out: Cos Cell IC50
Property Label: IC50 (nM)
Only the number, expressed in nM, is required.

Below, each entry is followed by its recorded IC50 result.
| Molecule | Assayed System | Property Label | Assay Value |
| --- | --- | --- | --- |
| CC(C)(C)OC(=O)NCCCC(=O)N1CCC(CC(=O)N2CCC([C@H]3c4ncc(Br)cc4CCc4cc(Cl)cc(Br)c43)CC2)CC1 | COS Cell | IC50 | 550 |
| O=C(Cc1c[nH]cn1)N1CCC(CC(=O)N2CCC([C@H]3c4ncc(Br)cc4CCc4cc(Cl)cc(Br)c43)CC2)CC1 | COS Cell | IC50 | 9 |

Request: Dear colleague, I am looking for the recorded IC50 of the following molecule: "CNC(=O)C(=O)N1CCC(CC(=O)N2CCC([C@H]3c4ncc(Br)cc4CCc4cc(Cl)cc(Br)c43)CC2)CC1"
Response: 10

Request: Dear colleague, I am looking for the recorded IC50 of the following molecule: "O=C(O)c1cccn1CC(=O)N1CCC(CC(=O)N2CCC([C@H]3c4ncc(Br)cc4CCc4cc(Cl)cc(Br)c43)CC2)CC1"
Response: 400

Request: Dear colleague, I am looking for the recorded IC50 of the following molecule: "NC(=O)CCCC(=O)N1CCC(CC(=O)N2CCC([C@H]3c4ncc(Br)cc4CCc4cc(Cl)cc(Br)c43)CC2)CC1"
Response: 35

Request: Dear colleague, I am looking for the recorded IC50 of the following molecule: CONC(=O)C(=O)N1CCC(CC(=O)N2CCC(C3c4ncc(Br)cc4CCc4cc(Cl)cc(Br)c43)CC2)CC1 (stereo not drawn)
Response: 38
